// data source = PubChem BioAssay (NCI)

assay: NCI Yeast Anticancer Drug Screen. Data for the sgs1 mgt1 strain (AID 161);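 note: 0% = growth of cultures given vehicle only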; settings: S. cerevisiae sgs1 mgt1 strain, at 50.0 µM (retest, dose inferred, filed as 5.0)
About 79,000 compounds went through this panel and 15% of them were active in at least one assay; those are over-represented in the sample as a whole. The source made the active and inactive calls. Cut-off read from the data, not from the text of the source: active = growth inhibition above about 70%; inactive = the rest.
Allowed answers: label 1 = active, label 0 = inactive

These recorded examples may help you get a feel for the data.
| molecule | classification |
| --- | --- |
| CC1CCC2(NC1)OC1CC3C4CC=C5CC(O)CCC5(C)C4CCC3(C)C1C2C (stereo unspecified) | label 1 |
| CC(=O)C1C2c3ccccc3C(c3ccccc32)C1C (stereo unspecified) | label 0 |
| CC(=O)[O][Hg][c]1c(C)c(C)c(C)c(C)c1C | label 1 |
| c1ccc2c3ccn4cc5c(cc4c-3nc2c1)CCCC5 | label 1 |
| O=C(O)C(O)(c1ccccc1)C1(O)CCCCC1 (stereo unspecified) | label 0 |

QUERY: // param item: COC1OC(COC(C)=O)C(OC(C)=O)C(OC(C)=O)[C]1(OC(C)=O)[Hg][O]C(C)=O (stereo unspecified) ; yields the recorded call
RESULT: label 1

QUERY: Short answer needed: outcome of this test for `CN1CC(Br)(Br)C(=O)N(C)C1=O` ?
RESULT: label 1

QUERY: Look up the recorded call for C[N+]1(CCCl)CC[N+](C)(CCCl)CC1 (stereo unspecified) in this test.
RESULT: label 1

QUERY: How did this test come out for `[C-]#[O+].[C-]#[O+].[Ir].[O-]c1ccc2ccccc2c1N=Nc1ccccc1` ?
RESULT: label 0

QUERY: Outcome? CC(O[Si](c1ccccc1)(c1ccccc1)C(C)(C)C)[C@H](NC(=O)OC(C)(C)C)C(=O)O (stereo partly specified)
RESULT: label 0

---

test: NCI Yeast Anticancer Drug Screen. Data for the rad50 strain (AID 155);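 note: 0% = growth of vehicle-only cultures of the same strain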; conditions: S. cerevisiae rad50 strain growth inhibition; at 5.0 µM (retest, dose inferred, filed as 0.5); stronger effect = higher value
Compounds without any hit were thinned out: in the full panel of roughly 79,000, 15% have a hit.
assay metric: growth inhibition (%)
Write the number in % without appending the unit.

Record summary for `CC(CCS(C)(=O)=O)([N+](=O)[O-])[N+](=O)[O-]` : reported growth inhibition = 48

What the record says about `C[C@]12CC[C@H]3[C@@H](CCC4=CC(=O)CC[C@@H]43)[C@@H]1CC[C@@H]2OC1(O)C(=O)c2ccccc2C1=O` : growth inhibition is -7

response.value for `CSc1ncc(COP(=S)(OCc2cnc(SC)nc2N)OCc2cnc(SC)nc2N)c(N)n1` (field: growth inhibition) = -1

Consider O=C(O)C1C2C=CC(C2)C1c1ccccc1 (stereo not given) . Its measured growth inhibition is -1

Kindly note the recorded growth inhibition for CCC1(O)C(=O)OCc2c1cc1n(c2=O)Cc2cc3ccc(C#N)cc3nc2-1 (stereo not given) , which is 71

---

growth inhibition values by entry
test: NCI Yeast Anticancer Drug Screen. Data for the sgs1 mgt1 strain (AID 161);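 note: 0% = growth of cultures given vehicle only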; details: S. cerevisiae sgs1 mgt1 strain, at 50.0 µM (retest, dose inferred, filed as 5.0), stronger effect = higher value
About 79,000 compounds went through this panel and 15% of them were active in at least one assay; those are over-represented in the sample as a whole.
Kindly provide the numeric value in % only, without the unit symbol.

Worked cases, growth inhibition given:
| compound | units | growth inhibition |
| --- | --- | --- |
| CCC[CH2][Sn]1([CH2]CCC)[O]CC(CN(C)Cc2ccccc2)[O]1 (stereo not given) | % | -5 |
| Oc1cccc2cccnc12 (tested in a mixture with another compound) | % | 2 |
| O=CNc1ccccc1.[Hg] | % | 98 |
| Fc1cccc(C2N(Cc3ccc(N(CCCl)CCCl)cc3Cl)CCCN2Cc2ccc(N(CCCl)CCCl)cc2Cl)c1 | % | 95 |

Next compound, please.
Documented growth inhibition of `O=S(=O)([O-])[O-].[Fe+2].c1ccc(/C(=N\Nc2ccccn2)c2ccccn2)cc1` : 22

---

experiment: NCI Yeast Anticancer Drug Screen. Data for the rad52 strain (AID 147);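 note: 0% = growth of vehicle-treated control cultures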; details: S. cerevisiae rad52 mutant growth inhibition; at 3.7 µM; stronger effect = higher value
This is part of a sample that, as a whole, favours compounds with a hit. Of some 79,000 tested, about 15% had one in any assay.
Threshold check on growth inhibition: at or above 50% gives 1.0, strictly below gives 0.0.

Some solved entries appear below for comparison.
| compound | classification |
| --- | --- |
| CCC1(O)C(=O)OCc2c1cc1n(c2=O)Cc2c-1nc1ccccc1c2OC (stereo not given) | 1.0 |
| CC[C@]1(O)CC(OC2CC(N(C)C)C(O)C(C)O2)c2c(cc3c(c2O)C(=O)c2c(O)cccc2C3=O)[C@@H]1C(=O)OC (stereo not given in full) | 1.0 |
| Nc1ccccc1C(=O)OCCc1ccccc1 | 0.0 |
| O=P(Oc1ccc(Cl)cc1)(Oc1ccc(Cl)cc1)N1CC1 | 0.0 |
| CC(=O)O/C(=C1\C[C@H]2[C@@H]3CC=C4C[C@@H](OC(C)=O)CC[C@]4(C)[C@H]3CC[C@]2(C)C1=O)C(F)(F)F | 0.0 |

QUERY: Item `CNC(=O)ON(C(C)=O)C(=O)NC` with growth inhibition of 50% or above?
RESULT: 0.0

QUERY: Item `C[C@]12CC[C@H](O)CC1=CC[C@@H]1[C@@H]2CC[C@]2(C)C(=O)CC[C@@H]12` with growth inhibition of 50% or above?
RESULT: 0.0

QUERY: Decide: is the reported value of growth inhibition for CCC1(O)C(=O)OCc2c1cc1n(c2=O)Cc2cc3ccccc3nc2-1 (stereo not given) equal to or greater than 50%?
RESULT: 1.0

QUERY: Quick check, growth inhibition >= 50%? `O=C(O)CCCOc1cc(Cl)c(Cl)cc1Cl`
RESULT: 0.0

---

assay: NCI Yeast Anticancer Drug Screen. Data for the cln2 rad14 strain (AID 165);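 note: 0% = growth equal to vehicle treated cultures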; settings: S. cerevisiae cln2 rad14 strain, at 50.0 µM
This is part of a sample that, as a whole, favours compounds with a hit. Of some 79,000 tested, about 15% had one in any assay. Calls of active or inactive are those of the source. Rule as the data show it: active = growth inhibition above about 70%; inactive = the rest.
Outcome (select one): active, inactive

Before answering, review these 5 worked examples.
| molecule | classification |
| --- | --- |
| O=c1c2ccccc2[se]n1-c1cccnc1 | inactive |
| CC(C)(C)OC(=O)NC(CSC(c1ccccc1)(c1ccccc1)c1cccs1)C(=O)O (configuration not stated) | active |
| CCC/C=[CH]/[Hg][Cl] | active |
| CC1CCCN(CCc2ccccc2)CC1 (configuration not stated) | inactive |
| CCC[CH2][Sn]1([CH2]CCC)[O]C(c2ccccn2)S(=O)(=O)[O]1 (configuration not stated) | active |

QUERY: So what was the verdict on `CS/C([S-])=N/N=C/c1ccccn1.[Cl][Pt+]` in this test?
RESULT: inactive

QUERY: Please share the test call associated with `C[CH2][Sn]([Cl])([CH2]C)[O][Sn]([CH2]C)([CH2]C)[O][Sn]([Cl])([CH2]C)[CH2]C` .
RESULT: active

QUERY: What did the test return for `C/C(=C\c1ccc2c(c1)OCO2)[N+](=O)[O-]` ?
RESULT: inactive

QUERY: Status in this test for COC(=O)C1=C(O)C(C(=O)OC)[C@]2(O)[C@@H](C(=O)OC)[C@H]1C[C@@H](c1ccccc1)[C@@H]2C(=O)OC (some centres not stated) ?
RESULT: active

QUERY: Which outcome did this test record for the molecule `CCC(=O)O[C@H]1CC[C@H]2[C@@H]3CCC4=C/C(=N/OC(=O)c5cccc6c(=O)c7ccccc7[nH]c56)CC[C@]4(C)[C@H]3CC[C@]12C` ?
RESULT: inactive

QUERY: Hey, what did the test say about `CN(CCc1ccc(Br)cc1)CCN1CCCCC1` ?
RESULT: active

QUERY: What is the recorded call for this molecule in the test? `c1cc[c]([Sn]([c]2ccccc2)([c]2ccccc2)[c]2ccccc2)cc1`
RESULT: inactive

QUERY: Test call for this molecule, please: CCC[CH2][Sn]([CH2]CCC)([O]C(=O)C(N)CSC)[O]C(=O)C(N)CSC (configuration not stated)
RESULT: inactive

QUERY: Please state the recorded outcome for this molecule: `CCC[CH2][Sn]1([CH2]CCC)[O]C(=O)c2cc(C)ccc2[O]1`
RESULT: active

---

Each entry below carries its recorded growth inhibition.
Test: NCI Yeast Anticancer Drug Screen. Data for the rad50 strain (AID 155);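 note: 0% = growth of vehicle-only cultures of the same strain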
Conditions: S. cerevisiae rad50 strain growth inhibition; at 50.0 µM (retest, dose inferred, filed as 5.0); stronger effect = higher value
Protocol: Growth inhibition of yeast strains with defined genetic alterations is measured as a screen for potential anti-cancer activity. Selected strains with alterations in DNA damage repair or cell cycle control were exposed to compounds and growth inhibition was measured relative to vehicle treated controls. The strain used in this assay is rad50
Compounds without any hit were thinned out: in the full panel of roughly 79,000, 15% have a hit.
Please respond with the number in % and leave the unit unwritten.

Solved entries:
| molecule | growth inhibition [%] |
| --- | --- |
| CCCCCCCCCCCCCCCCP(=O)(O)OP(=O)(O)OCC1OC(n2ccc(N)nc2=O)C(O)C1O (configuration not stated) | 10 |
| CC(C)C(=O)CP(=O)(O)O | 6 |
| COc1ccc(OC)c(C=O)c1 | 5 |
| CCC[CH2][Sn]1([CH2]CCC)[O]C(=O)c2cc(C)ccc2[O]1 | 97 |
| CC(=O)O/C(=C1\C[C@H]2[C@@H]3CC=C4C[C@@H](OC(C)=O)CC[C@]4(C)[C@H]3CC[C@]2(C)C1=O)C(F)(F)F | 18 |

Value of measured growth inhibition for the entry CC(=O)OC1C(=O)OCC23CCC4(C)OC4C2OC2CC(OC(=O)/C=C/C=C/C(=O)OCCC1C)C3(C)C21CO1 (configuration not stated) : 99

What the record says about `Brc1ccc(N2C[N+](c3ccc(Br)cc3)=NC(c3ccccc3)=N2)cc1` : growth inhibition is 94

Form field growth inhibition, entry CCN(CC)P1(=O)OC(c2ccccc2)=CCN1c1ccc(OC)cc1 (configuration not stated) : 85

growth inhibition recorded for this molecule, CC(CN1CCCCCCC1)C(C#N)(c1ccccc1)c1ccccc1 (configuration not stated) , is 47

For `Cc1cccc2cc3ccccc3cc12` the molecule record lists growth inhibition as 99

Summary for this molecule, `Nc1ncc(CCCCc2ccc(NC(=O)Nc3ccc(S(=O)(=O)F)cc3)cc2)c(N)n1` : growth inhibition is 60
